test system: CTG-3439; test: Ex-vivo cytotoxicity by Cell Titer Glo; type: cell-based; settings: Homo sapiens, 144 h; CTG-3439, 6 days
pIC50: −log10 of the molar value.

| compound structure string | pIC50 |
| --- | --- |
| Cc1cc2c(C(N)=O)cccc2n1-c1nc2c(c(NCc3ccccc3)n1)CCCN2 | 6.16 |

----------
system: CTG-2502; experiment: Ex-vivo cytotoxicity by Cell Titer Glo; type: cell-based; settings: Homo sapiens, 144 h; CTG-2502, 6 days
pIC50: −log10 of the molar value.
parameter measured: pIC50

| molecule | parameter measured | assay value |
| --- | --- | --- |
| Cc1cc2c(C(N)=O)cccc2n1-c1nc2c(c(NCc3ccccc3)n1)CCCN2 [Compound 1] | pIC50 | 6.32 |

----------
system: CTG-2901; assay: Ex-vivo cytotoxicity by Cell Titer Glo; type: cell-based; details: Homo sapiens, 144 h; CTG-2901, 6 days
pIC50: −log10 of the molar value.
parameter measured: pIC50

| compound structure string | parameter measured | assay value |
| --- | --- | --- |
| Cc1cc2c(C(N)=O)cccc2n1-c1nc2c(c(NCc3ccccc3)n1)CCCN2 | pIC50 | 6.35 |

----------
Listed here: items and their measured IC50.
tested on: HL-60 cell line; test: Combination treatments, Cell Titer-Glo viability after 72 hours; assay type: cell-based, human; details: Homo sapiens, 72 h; HL-60; no fixed agent (vehicle); read-out: IC50
parameter measured: IC50 (nM)

| compound | assay value |
| --- | --- |
| Nc1ncn([C@@H]2O[C@H](CO)[C@@H](O)[C@H]2O)c(=O)n1 [Azacitidine, azacitidine, reference compound] | 2400 |
| Cc1cc2c(C(N)=O)cccc2n1-c1nc2c(c(NCc3ccccc3)n1)CCCN2 [Compound 1] | 305 |

----------
test system: CTG-2239; assay: Ex-vivo cytotoxicity by Cell Titer Glo; type: cell-based; conditions: Homo sapiens, 144 h; CTG-2239, 6 days
pIC50: −log10 of the molar value.

| molecule | measured on | pIC50 |
| --- | --- | --- |
| Cc1cc2c(C(N)=O)cccc2n1-c1nc2c(c(NCc3ccccc3)n1)CCCN2 [Compound 1] | CTG-2239 | 6.40 |

----------
experiment: clinical; conditions: human, in vivo, 25 mg

| compound structure string | Tmax / h |
| --- | --- |
| Cc1cc2c(C(N)=O)cccc2n1-c1nc2c(c(NCc3ccccc3)n1)CCCN2 | 2 |

----------
System: CTG-2702
Experiment: Ex-vivo cytotoxicity by Cell Titer Glo
Format: cell-based
Conditions: Homo sapiens, 144 h; CTG-2702, 6 days
Protocol: Acute myelogenous leukemia (AML) is the most common acute leukemia in adults. A hematologic cancer, the disease is highly heterogeneous, with multiple subtypes. […] Triplicate wells with media only and duplicate wells of vehicle (0.2% DMSO) were used as negative controls. […] To measure proliferation, untreated cells at days 0 and 6 were evaluated via Cell Titer Glo. Protocol: • 1. […] 100 μL/well Cell Titer Glo was added to each well and incubated for 10 minutes before plate reading. • 6. […]
parameter measured: IC50

| compound structure string | measured on | assay value |
| --- | --- | --- |
| Cc1cc2c(C(N)=O)cccc2n1-c1nc2c(c(NCc3ccccc3)n1)CCCN2 | CTG-2702 | 427 nM |

----------
tested on: CTG-2455; assay: Ex-vivo cytotoxicity by Cell Titer Glo; type: cell-based; conditions: Homo sapiens, 144 h; CTG-2455, 6 days
pIC50: −log10 of the molar value.

| compound structure string | pIC50 |
| --- | --- |
| Cc1cc2c(C(N)=O)cccc2n1-c1nc2c(c(NCc3ccccc3)n1)CCCN2 | 6.66 |

----------
Tested on: OCI-AML-3
Test: Combination Index (Chou-Talalay) of Compound 1 with additional therapeutic agents
Type: cell-based, human
Settings: OCI-AML-3; CI scores across all 3 ratios averaged
Method: Each combination was tested in 3 cell lines: MOML-13 (Human Acute Myeloid Leukemia cell line; Addex Bio), MV-4-11 (Human B Myelomoncytic Leukemia cell line; ATCC), and OCI-AML-3 (Human Acute Myeloid Leukemia cell line). Within this range, 20 dose levels were tested for each combination, with each response determined in duplicate. […] The actual drug concentrations in the ratios were determined from the IC50 values obtained for each individual drug. […]

| molecule | measured on | Combination Index of Compound 1 + agent |
| --- | --- | --- |
| COCC1(CO)C(=O)C2CCN1CC2 (stereo not drawn) [APR-246] | OCI-AML-3 | 1.279 |
| CC1(C)CCC(CN2CCN(c3ccc(C(=O)NS(=O)(=O)c4ccc(NCC5CCOCC5)c([N+](=O)[O-])c4)c(Oc4cnc5[nH]ccc5c4)c3)CC2)=C(c2ccc(Cl)cc2)C1 [Venetoclax] | OCI-AML-3 | 0.855 |
| CCc1nc(C(N)=O)c(Nc2ccc(N3CCC(N4CCN(C)CC4)CC3)c(OC)c2)nc1NC1CCOCC1 [Gilteritinib] | OCI-AML-3 | 1.514 |
| COc1ccc([C@@H](O)c2cc(-c3ncnc4cc(N5CCOCC5)ccc34)c(F)cc2Cl)nn1 [Nedisertib] | OCI-AML-3 | 1.170 |
| Cn1ncnc1[C@H]1c2n[nH]c(=O)c3cc(F)cc(c23)N[C@@H]1c1ccc(F)cc1 [Talazoparib] | OCI-AML-3 | 0.986 |
| CC(C)C[C@H](NC(=O)CNC(=O)c1cc(Cl)ccc1Cl)B(O)O [Ixazomib] | OCI-AML-3 | 1.438 |
| C[C@@H]1COCCN1c1cc(C2([S@](C)(=N)=O)CC2)nc(-c2cc[nH]c3nccc2-3)n1 [AZD6738] | OCI-AML-3 | 1.421 |
| CN(C)CCCOc1ccc(-c2ccc3ncc4c(c3c2)n(C2CCOCC2)c(=O)n4C)cn1 [AZDO156] | OCI-AML-3 | 1.159 |
| NS(=O)(=O)OC[C@@H]1C[C@@H](n2ccc3c(N[C@H]4CCc5ccccc54)ncnc32)C[C@@H]1O [Pevonedistat] | OCI-AML-3 | 1.186 |

----------
system: CTG-2453; experiment: Ex-vivo cytotoxicity by Cell Titer Glo; type: cell-based; conditions: Homo sapiens, 144 h; CTG-2453, 6 days

| compound | measured on | units symbol | IC50 |
| --- | --- | --- | --- |
| Cc1cc2c(C(N)=O)cccc2n1-c1nc2c(c(NCc3ccccc3)n1)CCCN2 [Compound 1] | CTG-2453 | nM | 307 |
